# SYSTEM NAME: T1, Anti-CD28 Fab (SEQ ID NOs: 696, 697)
# T1 construct: In the phage ELISA the Fab was biotinylated and captured on neutravidin coated plates
# T1 sequence (VH, as listed by the source, chain 1 of 2): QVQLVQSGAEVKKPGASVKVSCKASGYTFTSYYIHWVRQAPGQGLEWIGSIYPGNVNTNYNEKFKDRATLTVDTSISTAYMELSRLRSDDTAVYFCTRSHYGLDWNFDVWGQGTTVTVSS
# T1 sequence (VL, as listed by the source, chain 2 of 2): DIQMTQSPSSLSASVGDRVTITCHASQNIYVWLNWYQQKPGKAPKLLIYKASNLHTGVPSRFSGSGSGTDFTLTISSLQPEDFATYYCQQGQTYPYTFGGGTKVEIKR
# ASSAY TEXT: phage binding ELISA on captured Fab; wells pre-incubated with CD28 antigen as competitor
TEST READOUT: Anti-CD28 Fab signal in the presence of CD28

Data request: What does the record list as Anti-CD28 Fab signal in the presence of CD28 for PCAAGAQWSWPMCL [Phage-1656] ?
Data returned: 0.09

Data request: Next binder up: TCAAGANYAWPVCL [Phage-1652]
Data returned: 0.13

Data request: Next binder up: QCAAGATYPWPVCL [Phage-1647]
Data returned: 0.09

Data request: Next binder up: SCAAGAAYAWPWCL [Phage-1660]
Data returned: 0.07

Data request: Next binder up: TCAAGATYSWPSCF [Phage-1651]
Data returned: 0.07

Data request: Next binder up: TCSAGATYTWPVCF [Phage-1648]
Data returned: 0.06

Data request: Next binder up: SCAAGSTWAWPACL [Phage-1657]
Data returned: 0.07

Data request: Next binder up: TCSAGAHYEWPKCL [Phage-1649]
Data returned: 0.07

Data request: Next binder up: TCAAGAHYEWPQCF [Phage-1653]
Data returned: 0.06

Data request: Next binder up: TCSAGATYSWPLCF [Phage-1650]
Data returned: 0.09

Data request: Next binder up: TCAAGATWTWPTCM [Phage-1655]
Data returned: 0.06

Data request: Next binder up: TCAAGATYNWPWCF [Phage-1654]
Data returned: 0.07

Data request: Next binder up: SCAAGFHYEWPQCF [Phage-1658]
Data returned: 0.06

Data request: Next binder up: SCTAGFRIHWPMCF [Phage-1659]
Data returned: 0.12

Origin of the recorded values: patent US20260242478A1
